# condition: in n-butanol, 293.15 K
result_type: solubility (mole fraction)
Numbers only.

Returns the measured solubility (mole fraction) for the input compound. Input: `CC(C)C(=O)OCC(=O)[C@@]12O[C@H](C3CCCCC3)O[C@@H]1C[C@H]1[C@@H]3CCC4=CC(=O)C=C[C@]4(C)[C@H]3[C@@H](O)C[C@@]12C`
0.0852

---

# condition: in n-propanol, 280.65 K
result_type: solubility (mole fraction)
One number for each entry.

GET /values?readout=solubility (mole fraction)&item= `CC(C)C(=O)OCC(=O)[C@@]12O[C@H](C3CCCCC3)O[C@@H]1C[C@H]1[C@@H]3CCC4=CC(=O)C=C[C@]4(C)[C@H]3[C@@H](O)C[C@@]12C`
0.0164

---

# condition: in isopropanol, 293.15 K
result_type: solubility (mole fraction)
Give bare numbers.

// returns reported solubility (mole fraction) for input `CC(C)C(=O)OCC(=O)[C@@]12O[C@H](C3CCCCC3)O[C@@H]1C[C@H]1[C@@H]3CCC4=CC(=O)C=C[C@]4(C)[C@H]3[C@@H](O)C[C@@]12C`
0.0203

---

# condition: in n-propanol, 310.65 K
result_type: solubility (mole fraction)
Numbers only.

// query solubility (mole fraction) value for entry `CC(C)C(=O)OCC(=O)[C@@]12O[C@H](C3CCCCC3)O[C@@H]1C[C@H]1[C@@H]3CCC4=CC(=O)C=C[C@]4(C)[C@H]3[C@@H](O)C[C@@]12C`
0.0825

---

# condition: in n-propanol, 293.15 K
result_type: solubility (mole fraction)
One number for each entry.

Request the reported solubility (mole fraction) associated with `CC(C)C(=O)OCC(=O)[C@@]12O[C@H](C3CCCCC3)O[C@@H]1C[C@H]1[C@@H]3CCC4=CC(=O)C=C[C@]4(C)[C@H]3[C@@H](O)C[C@@]12C`
0.0334

---

# condition: in isopropanol, 295.65 K
result_type: solubility (mole fraction)
Give bare numbers.

Could you share which solubility (mole fraction) value was measured for `CC(C)C(=O)OCC(=O)[C@@]12O[C@H](C3CCCCC3)O[C@@H]1C[C@H]1[C@@H]3CCC4=CC(=O)C=C[C@]4(C)[C@H]3[C@@H](O)C[C@@]12C` ?
0.0234

---

# condition: in n-butanol, 305.65 K
result_type: solubility (mole fraction)
Give bare numbers.

Can you look up the measured solubility (mole fraction) of `CC(C)C(=O)OCC(=O)[C@@]12O[C@H](C3CCCCC3)O[C@@H]1C[C@H]1[C@@H]3CCC4=CC(=O)C=C[C@]4(C)[C@H]3[C@@H](O)C[C@@]12C` for me?
0.111

---

# condition: in acetonitrile, 305.65 K
result_type: solubility (mole fraction)
Give bare numbers.

What does the data say about its solubility (mole fraction)? Entry: `CC(C)C(=O)OCC(=O)[C@@]12O[C@H](C3CCCCC3)O[C@@H]1C[C@H]1[C@@H]3CCC4=CC(=O)C=C[C@]4(C)[C@H]3[C@@H](O)C[C@@]12C`
0.0117

---

# condition: in toluene, 298.15 K
result_type: solubility (mole fraction)
Numbers only.

Would you mind telling me what solubility (mole fraction) value was observed for `CC(C)C(=O)OCC(=O)[C@@]12O[C@H](C3CCCCC3)O[C@@H]1C[C@H]1[C@@H]3CCC4=CC(=O)C=C[C@]4(C)[C@H]3[C@@H](O)C[C@@]12C` ?
0.0511

// data source = BigSolDB 2.1
